// provenance: PubChem BioAssay AID504349

- test-description: OD600 growth after T7 infection, EV36 – E. coli EV36 K1, powder samples, selectivity assay for bacterial capsule biogenesis inhibitors, dose response (AID 504349)
- condition-context: E. coli EV36 K1, T7 phage lysis, OD600 3 h; at 100 µM (top of the series)
measurement-name: phage lysis inhibition (viability) (%)
Only the number, expressed in %, is required.

Suppose we examine the molecule "Cc1cc(C)c2c(=O)c(-c3cc(C(=O)O)c4cc5ccccc5cc4n3)coc2c1" ; what phage lysis inhibition (viability) value has been reported? 107

So what's the measured phage lysis inhibition (viability) for this one? Cc1ccc(C2c3c(oc4cc(C)c(C)cc4c3=O)C(=O)N2CCCN2CCOCC2)cc1 (stereo unspecified) 91.7

Would you mind telling me what phage lysis inhibition (viability) value was observed for C=CCOc1ccc(C2c3c(oc4ccccc4c3=O)C(=O)N2CCCN2CCOCC2)cc1 (stereo unspecified) ? 97.4

Find the recorded phage lysis inhibition (viability) belonging to "COc1ccc(OC)c(-c2cc(C(=O)O)c3cc4ccccc4cc3n2)c1" and report it. 99

Can you look up the measured phage lysis inhibition (viability) of "O=C(O)c1cc(-c2cccc(Cl)c2)nc2cc3ccccc3cc12" for me? 101

Please report the recorded phage lysis inhibition (viability) for "O=C(O)c1cc(-c2c[nH]c3ccccc23)nc2cc3ccccc3cc12" . 101

* * *

- Tested on: E. coli EV36 K1, T7 phage lysis, OD600 3 h
- test-description: OD600 growth after T7 infection, EV36 – E. coli EV36 K1, powder samples, selectivity assay for bacterial capsule biogenesis inhibitors, dose response (AID 504349)
pIC50: −log10 of the molar value.
measurement-name: pIC50

I would be grateful if you could share the reported pIC50 for "COc1ccc2nc(NC(=O)c3ccc(Br)s3)sc2c1" . > 6.41

Data request, read-out pIC50, for CC1(C(=O)O)CCC(C(=O)Nc2ccc3ccccc3c2)C1(C)C (stereo unspecified) 5.07

Find the recorded pIC50 belonging to "CCOc1ccc(-c2cc(NC(=O)c3c(F)cccc3F)c(C(=O)O)s2)cc1" and report it. > 6.41

Recorded pIC50 of "O=C(COc1ccc(Cl)cc1Cl)Nc1ccc(C(=O)Nc2ccccc2C(=O)O)cc1" , please. 5.54

Please look up its pIC50: "O=C(Nc1ccncc1)c1ccc2ncsc2c1" > 6.41

Query (compound): "CC1=NN2C(=N)/C(=C\c3ccc(SCc4ccco4)o3)C(=O)N=C2S1" ; field requested: pIC50 5.82

* * *

- Test system: E. coli EV36 K1, T7 phage lysis, OD600 3 h
- test-description: OD600 growth after T7 infection, EV36 – E. coli EV36 K1, powder samples, selectivity assay for bacterial capsule biogenesis inhibitors, dose response (AID 504349)
pIC50: −log10 of the molar value.
Could you please report measured pIC50 for the items listed next?

Would you kindly share the measured pIC50 for "O=C(NCc1cc([N+](=O)[O-])ccc1O)c1cccnc1Sc1ccccc1Cl" ? 5.74

Field request: pIC50 | item: "O=C(NCc1cc([N+](=O)[O-])ccc1O)c1cccnc1Sc1ccccc1" 5.34

Find the recorded pIC50 belonging to "O=C(ONc1ccc(N=NC(=O)c2ccccc2O)cc1)c1ccccc1" and report it. > 6.41
